src = ChEMBL document CHEMBL3603837

These records show pKi for UniProtKB P10275.
Sequence (P10275 whole entry): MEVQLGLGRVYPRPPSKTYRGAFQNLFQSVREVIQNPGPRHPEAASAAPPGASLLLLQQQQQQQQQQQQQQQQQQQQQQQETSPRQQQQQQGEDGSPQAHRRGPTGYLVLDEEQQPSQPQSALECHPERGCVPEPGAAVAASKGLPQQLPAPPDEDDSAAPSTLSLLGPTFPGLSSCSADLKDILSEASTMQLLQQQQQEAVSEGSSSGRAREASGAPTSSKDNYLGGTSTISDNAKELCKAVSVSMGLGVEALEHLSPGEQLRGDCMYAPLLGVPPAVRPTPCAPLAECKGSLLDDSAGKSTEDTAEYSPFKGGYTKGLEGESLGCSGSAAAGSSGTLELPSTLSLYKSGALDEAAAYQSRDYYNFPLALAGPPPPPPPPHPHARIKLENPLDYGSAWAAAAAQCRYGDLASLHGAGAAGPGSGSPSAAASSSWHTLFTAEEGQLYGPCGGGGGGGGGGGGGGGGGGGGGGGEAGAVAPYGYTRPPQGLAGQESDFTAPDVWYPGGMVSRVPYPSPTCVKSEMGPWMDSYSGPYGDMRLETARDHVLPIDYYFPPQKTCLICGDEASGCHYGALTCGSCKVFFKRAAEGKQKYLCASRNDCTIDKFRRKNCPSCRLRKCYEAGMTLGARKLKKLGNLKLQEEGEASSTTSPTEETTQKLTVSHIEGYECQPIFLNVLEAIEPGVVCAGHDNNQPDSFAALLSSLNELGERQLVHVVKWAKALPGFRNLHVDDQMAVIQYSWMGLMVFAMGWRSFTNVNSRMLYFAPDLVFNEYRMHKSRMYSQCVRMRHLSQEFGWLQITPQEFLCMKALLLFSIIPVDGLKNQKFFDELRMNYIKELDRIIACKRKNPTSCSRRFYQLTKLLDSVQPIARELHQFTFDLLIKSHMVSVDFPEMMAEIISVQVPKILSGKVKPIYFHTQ
For clarity, pKi is expressed as the negative log10 of concentration in mol/L.

Illustrative cases are given below, each with its answer.
COc1cc(F)ccc1-c1c(CN(C)Cc2ccccc2)[nH]c2c(NS(C)(=O)=O)cc(C(C)(C)C)cc12	6.64
CS(=O)(=O)Nc1cccc2c(-c3ccc(F)cc3)c[nH]c12	6.30
COc1cc(NS(C)(=O)=O)c2[nH]c(C)c(-c3cc(F)ccc3OC)c2c1	5.95
COc1ccc(Cl)cc1-c1c[nH]c2c(NS(C)(=O)=O)cccc12	6.16

Now for the compound whose pKi we want.
The compound listed as `COc1cc(F)ccc1-c1c(C)[nH]c2c(NS(C)(=O)=O)cc(F)cc12` shows pKi equal to 5.95
